- System: UACC-62
- testName: NCI tumour cell line growth inhibition, 48 h
Active and inactive are the calls of the source. Cut-off read from the data, not from the text of the source: active = GI50 up to about 1.1 µM and inactive = higher.
reportedMetric: GI50

Fill blank: measured GI50 of the compound N#C/C(=C\c1ccccc1F)C(=O)c1ccccc1 is ____. > 100 µM (inactive)

Fill in the blank: the reported GI50 of OCCCc1cnco1 is ____. > 100 µM (inactive)

Field request: GI50 | item: CCN(CC)c1c(C)c(C(=O)OC)nn1-c1ccccc1 > 100 µM (inactive)

GET /values?readout=GI50&item= COc1c(Br)cc(Br)c(OC)c1-c1ccc[nH]1 56.1 µM (inactive)

GI50 for Cn1cc(-c2cnc(-c3cn(C)c4ccccc34)cn2)c2ccccc21 ? 2.86 µM (inactive)

* * *

- Tested on: SK-OV-3
- testName: NCI tumour cell line growth inhibition, 48 h
Activity calls are given as the source filed them. Rule as the data show it: active = GI50 up to about 1.1 µM and inactive = higher.
In this section, each of the compounds is paired with its reported GI50.

Worked cases, answers included:
Cc1cc2c(c(/C=N/c3ccc([N+](=O)[O-])cc3)c1)OC1(C=C2)Oc2ccccc2C(=O)N1C (stereo unspecified) | 22.2 µM (inactive)
Cn1/c(=N\c2ccccc2[N+](=O)[O-])sc2ccccc21 | 23 µM (inactive)
CC(=O)NN1C(=O)C(Cc2ccccc2)c2ccccc21 (stereo unspecified) | > 100 µM (inactive)
CC(O)c1ccc(C(O)/C(=N\NC(=O)c2ccncc2)c2nc3ccc([N+](=O)[O-])cc3nc2O)cc1 (stereo unspecified) | > 100 µM (inactive)
C=C(Cl)C(C)(Cl)CCC(Br)C(C)(C)Cl (stereo unspecified) | 12.7 µM (inactive)

Now let's try a different one.
Value lookup for GI50; key = NNC(=O)COc1nc(-c2cccs2)nc2ccc(I)cc12 20.6 µM (inactive)

* * *

The following compounds are shown together with reported GI50 values.
- Test system: SK-OV-3
- testName: NCI tumour cell line growth inhibition, 48 h
Activity calls are given as the source filed them. Rule as the data show it: active = GI50 up to about 1.1 µM and inactive = higher.

Solved entries (count: 2):
O=C1C(=O)c2cc([N+](=O)[O-])ccc2-c2ccc([N+](=O)[O-])cc21 | 2.51 µM (inactive)
COc1c(Br)cc(/C=C(\C#N)c2ccccn2)cc1Br | 15.3 µM (inactive)

For CCCCCCC(=O)C/C(CCC(=O)N(Cc1ccccc1)Cc1ccccc1)=N\NC(N)=O , what is its reported GI50? > 100 µM (inactive)

Give its GI50 value. Item: O=C1c2ccccc2C2(O)c3cc4ccccc4cc3OC12O (stereo not given) > 100 µM (inactive)

Look at this compound and give its reported GI50. Cc1ccc(-n2c(Cn3nnc(-c4cccnc4)n3)nn(C3OC(COC(=O)c4ccccc4)C(OC(=O)c4ccccc4)C3OC(=O)c3ccccc3)c2=S)cc1 (stereo not given) > 100 µM (inactive)

Cited source: ChEMBL document CHEMBL1201862
